- measurement_target: Human CaV2.2 channels (Homo sapiens)
- Construct: expressed in transfected cells; also stably expressing Kir2.3)
- assay: Fluorescence assay for CaV2.2 channels using potassium depolarization to induce channel opening (FLIPR, Fluo 4)
- Format: cell-based
- assay_conditions: HEK293, 3 μM test compound, 30 mM KCl assay buffer (inactivated channel state), HEK293 cells; read-out: Activity Category: %-Inhib (CaV2.2) @3 μM @30 mM KCl
- Text: In the process, the Ca^2+ influx is quantified in the FLIPR assay with the aid of a Ca^2+-sensitive dye (type Fluo-4, Molecular Probes Europe BV, Leiden, the Netherlands) in a fluorescent imaging plate reader (FLIPR 3, Molecular Devices, Sunnyvale, USA), as described hereinafter. [drawing 69] 2. Assay Descriptions and Biological Data: 2.1 Fluorescence Assay for CaV2.2 Channels Using Potassium Depolarization to Induce Channel Opening […]
readout_name: inhibition at 3 µM

Hello, I would appreciate it if you could give inhibition at 3 µM for each entry below.
1. CC(F)(F)c1cc(C2CC(C)(S(=O)(=O)c3cccc(C(F)(F)F)c3)CCO2)[nH]n1 (stereo not drawn) [Example 13 cis-EN1]
2. CC1(S(=O)(=O)c2cccc(C(F)(F)F)c2)CCOC(c2cc(S(=O)(=O)CC(F)(F)F)n[nH]2)C1 (stereo not drawn) [Example 29 cis-EN1]
3. CC1(S(=O)(=O)c2cccc(C(F)(F)F)c2)CCOC(c2cc(CCS(C)(=O)=O)n[nH]2)C1 (stereo not drawn) [Example 9 cis-EN1]
4. CC1(S(=O)(=O)c2cccc(C(F)(F)F)c2)CCOC(c2cc(OCC(F)(F)F)n[nH]2)C1 (stereo not drawn) [Example 16 cis-EN2]

["> 95%", "75 to 95%", "40 to 75%", "> 95%"]

###

- measurement_target: Human CaV2.2 channels (Homo sapiens, UniProt Q00975)
- Construct: expressed in transfected cells; also stably expressing Kir2.3)
- Sequence (Q00975 whole entry): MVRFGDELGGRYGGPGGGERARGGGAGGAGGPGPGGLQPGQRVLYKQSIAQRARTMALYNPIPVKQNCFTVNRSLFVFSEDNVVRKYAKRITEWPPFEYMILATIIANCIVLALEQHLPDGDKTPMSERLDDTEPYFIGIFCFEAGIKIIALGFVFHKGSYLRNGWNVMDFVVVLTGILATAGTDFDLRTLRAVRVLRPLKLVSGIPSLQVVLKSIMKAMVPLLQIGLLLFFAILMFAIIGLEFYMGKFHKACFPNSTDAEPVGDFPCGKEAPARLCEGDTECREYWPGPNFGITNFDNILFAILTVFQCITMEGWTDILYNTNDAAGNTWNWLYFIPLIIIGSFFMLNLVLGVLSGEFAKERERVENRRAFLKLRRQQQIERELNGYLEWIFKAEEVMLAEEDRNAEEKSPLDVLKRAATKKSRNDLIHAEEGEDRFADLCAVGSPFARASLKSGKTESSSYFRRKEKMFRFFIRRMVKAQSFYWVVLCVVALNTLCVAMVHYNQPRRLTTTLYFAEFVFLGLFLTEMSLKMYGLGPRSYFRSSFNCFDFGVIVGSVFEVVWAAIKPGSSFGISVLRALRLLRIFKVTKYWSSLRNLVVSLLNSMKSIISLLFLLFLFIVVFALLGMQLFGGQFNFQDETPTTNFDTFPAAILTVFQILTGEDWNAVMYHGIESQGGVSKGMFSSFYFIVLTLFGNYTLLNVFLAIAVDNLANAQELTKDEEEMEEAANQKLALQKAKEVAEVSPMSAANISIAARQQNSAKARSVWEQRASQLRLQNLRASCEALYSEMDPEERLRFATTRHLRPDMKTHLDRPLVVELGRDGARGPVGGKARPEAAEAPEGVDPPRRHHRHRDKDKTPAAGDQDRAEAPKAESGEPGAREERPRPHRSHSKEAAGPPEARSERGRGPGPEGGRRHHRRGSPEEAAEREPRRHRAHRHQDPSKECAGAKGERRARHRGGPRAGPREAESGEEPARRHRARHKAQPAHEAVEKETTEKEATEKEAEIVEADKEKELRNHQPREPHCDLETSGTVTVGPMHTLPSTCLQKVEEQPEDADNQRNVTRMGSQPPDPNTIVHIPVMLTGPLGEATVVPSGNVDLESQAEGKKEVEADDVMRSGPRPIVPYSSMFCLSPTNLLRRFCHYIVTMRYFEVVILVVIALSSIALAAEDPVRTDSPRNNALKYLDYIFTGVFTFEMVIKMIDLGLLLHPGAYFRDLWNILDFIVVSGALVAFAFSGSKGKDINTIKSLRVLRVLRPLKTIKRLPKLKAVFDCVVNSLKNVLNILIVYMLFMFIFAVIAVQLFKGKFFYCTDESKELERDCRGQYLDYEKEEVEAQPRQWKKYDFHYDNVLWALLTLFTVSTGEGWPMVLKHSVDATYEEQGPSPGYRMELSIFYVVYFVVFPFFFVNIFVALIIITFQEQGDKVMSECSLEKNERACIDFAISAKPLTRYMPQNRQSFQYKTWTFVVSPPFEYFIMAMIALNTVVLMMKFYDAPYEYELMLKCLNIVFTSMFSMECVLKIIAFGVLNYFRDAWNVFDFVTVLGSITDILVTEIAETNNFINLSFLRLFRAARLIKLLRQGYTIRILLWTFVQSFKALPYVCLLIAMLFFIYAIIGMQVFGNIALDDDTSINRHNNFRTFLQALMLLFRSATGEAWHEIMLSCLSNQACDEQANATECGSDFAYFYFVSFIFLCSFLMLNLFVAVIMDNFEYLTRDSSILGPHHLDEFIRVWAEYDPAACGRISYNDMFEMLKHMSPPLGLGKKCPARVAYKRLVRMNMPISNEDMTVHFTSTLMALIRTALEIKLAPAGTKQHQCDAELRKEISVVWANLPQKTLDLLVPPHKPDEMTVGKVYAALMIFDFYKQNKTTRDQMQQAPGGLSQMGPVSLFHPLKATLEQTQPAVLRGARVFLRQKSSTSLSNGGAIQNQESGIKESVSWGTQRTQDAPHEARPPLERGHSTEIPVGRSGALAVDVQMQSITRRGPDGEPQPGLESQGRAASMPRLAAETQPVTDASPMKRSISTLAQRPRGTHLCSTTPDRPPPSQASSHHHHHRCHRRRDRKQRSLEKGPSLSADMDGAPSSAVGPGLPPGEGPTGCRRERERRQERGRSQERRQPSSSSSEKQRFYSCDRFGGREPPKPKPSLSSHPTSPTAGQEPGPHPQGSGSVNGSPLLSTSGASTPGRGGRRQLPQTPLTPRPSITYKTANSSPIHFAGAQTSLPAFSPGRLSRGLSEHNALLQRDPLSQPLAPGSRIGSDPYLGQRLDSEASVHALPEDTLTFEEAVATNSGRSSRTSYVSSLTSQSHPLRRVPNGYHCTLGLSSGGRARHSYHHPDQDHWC
- assay: Fluorescence assay for CaV2.2 channels using potassium depolarization to induce channel opening (FLIPR, Fluo 4)
- Assay type: cell-based
- assay_conditions: HEK293, 3 μM test compound, 30 mM KCl assay buffer (inactivated channel state), HEK293 cells; read-out: Activity Category: %-Inhib (CaV2.2) @3 μM @30 mM KCl
readout_name: inhibition at 3 µM

Hello, I would appreciate it if you could give inhibition at 3 µM for each entry below.
1. COCC(C)(C)c1cc(C2CC(C)(S(=O)(=O)c3cccc(C(F)(F)F)c3)CCO2)[nH]n1 (stereo not drawn) [Example 33 cis-EN1]
2. CC1(S(=O)(=O)c2cccc(C(F)(F)F)c2)CCOC(c2cc(S(=O)(=O)CC(F)F)n[nH]2)C1 (stereo not drawn) [Example 3 cis-EN1]
3. CC1(S(=O)(=O)c2cccc(C(F)(F)F)c2)CCOC(c2cc(CC(F)(F)F)n[nH]2)C1 (racemic) [Example 15 cis-rac]
4. CC(C)(c1cc(C2CC(C)(S(=O)(=O)c3cccc(C(F)(F)F)c3)CCO2)[nH]n1)S(C)(=O)=O (stereo not drawn) [Example 7 cis-EN1]

1. > 95%
2. 30 to 40%
3. > 95%
4. 75 to 95%

###

- measurement_target: Human CaV2.2 channels (Homo sapiens, UniProt Q00975)
- Construct: expressed in transfected cells; also stably expressing Kir2.3)
- assay: Fluorescence assay for CaV2.2 channels using potassium depolarization to induce channel opening (FLIPR, Fluo 4)
- Assay type: cell-based
- assay_conditions: HEK293, 3 μM test compound, 30 mM KCl assay buffer (inactivated channel state), HEK293 cells; read-out: Activity Category: %-Inhib (CaV2.2) @3 μM @30 mM KCl
- From the text: In the process, the Ca^2+ influx is quantified in the FLIPR assay with the aid of a Ca^2+-sensitive dye (type Fluo-4, Molecular Probes Europe BV, Leiden, the Netherlands) in a fluorescent imaging plate reader (FLIPR 3, Molecular Devices, Sunnyvale, USA), as described hereinafter. [drawing 69] 2. Assay Descriptions and Biological Data: 2.1 Fluorescence Assay for CaV2.2 Channels Using Potassium Depolarization to Induce Channel Opening […]
Provide the recorded inhibition at 3 µM for the entries that follow.

As a guide, the following entries are already answered.
CC1(S(=O)(=O)c2cccc(C(F)(F)F)c2)CCOC(c2cc(OCC(F)F)n[nH]2)C1 (stereo not drawn) [Example 32 cis-EN1] | > 95%
CC1(S(=O)(=O)c2cccc(C(F)(F)F)c2)CCOC(c2cc(S(=O)(=O)C(F)(F)F)n[nH]2)C1 (stereo not drawn) [Example 27 cis-EN1] | > 95%
CC(C)(CO)c1cc(C2CC(C)(S(=O)(=O)c3cccc(C(F)(F)F)c3)CCO2)[nH]n1 (stereo not drawn) [Example 34 cis-EN1] | 75 to 95%

Return reported inhibition at 3 µM. Input compound: CC(C)(C(N)=O)c1cc(C2CC(C)(S(=O)(=O)c3cccc(C(F)(F)F)c3)CCO2)[nH]n1 (stereo not drawn) [Example 30 cis-EN2]
40 to 75%

###

- measurement_target: Human CaV2.2 channels (Homo sapiens)
- Construct: expressed in transfected cells; also stably expressing Kir2.3)
- assay: Fluorescence assay for CaV2.2 channels using potassium depolarization to induce channel opening (FLIPR, Fluo 4)
- Format: cell-based
- assay_conditions: HEK293, 3 μM test compound, 30 mM KCl assay buffer (inactivated channel state), HEK293 cells; read-out: Activity Category: %-Inhib (CaV2.2) @3 μM @30 mM KCl
readout_name: inhibition at 3 µM

As a guide, the following entries are already answered.
CC(C)CS(=O)(=O)c1cc(C2CC(C)(S(=O)(=O)c3cccc(C(F)(F)F)c3)CCO2)[nH]n1 (stereo not drawn) [Example 35 cis-EN1] | 75 to 95%
CC1(S(=O)(=O)c2cccc(C(F)(F)F)c2)CCOC(c2cc(C3(O)COC3)n[nH]2)C1 (stereo not drawn) [Example 18 cis-EN1] | 40 to 75%

Consider the additional compound presented here.
Return reported inhibition at 3 µM. Input compound: CC1(S(=O)(=O)c2cccc(C(F)(F)F)c2)CCOC(c2cc(C(F)F)[nH]n2)C1 (racemic) [[trans-rac] Example 12]
75 to 95%

These entries and their values trace back to patent US10106530B2.
